Test system: Zea mays (ZEAMX)
Assay type: in vivo
run_parameters: crop plant compatibility, 80 g/ha, effect vs untreated controls
Method: Seeds of monocotyledonous and dicotyledonous weeds and crop plants are placed in sandy loam in plastic or organic planting pots, covered with soil and cultivated in a greenhouse under controlled growth conditions. 2 to 3 weeks after sowing, the test plants are treated at the one-leaf stage. […]
measurement_kind: Post-emergence action against ZEAMX in % (%)

a. N#CCOC(=O)COc1nn(-c2ncccc2F)c(-c2ccc(F)nc2)c1Br
b. COC(=O)CCOC(=O)[C@@H](C)Oc1nn(-c2ccccn2)c(-c2ccc(F)nc2)c1Br
c. CCOC(=O)COc1nn(-c2ncccc2F)c(-c2ccc(F)nc2)c1I
Inquiry: Reorder the list above by recorded Post-emergence action against ZEAMX in % in ascending order. Field: ranking. Enter the labels in the order requested.
Reply text: c, b, a

I. CCOC(=O)COc1nn(-c2nc(F)ccc2F)c(-c2ccc(F)nc2)c1C1CC1
II. O=C(COc1nn(-c2ncccc2F)c(-c2ccc(F)nc2)c1C1CC1)OCC1CCOC1 (centres unmarked)
III. CCOC(=O)COc1nn(-c2ncccc2OC)c(-c2ccc(F)nc2)c1I
Inquiry: Arrange items by their Post-emergence action against ZEAMX in % values in increasing order. # list labels per requested ordering
Reply text: III, II, I

---

Test system: Oryza sativa (ORYSA)
Assay type: in vivo
run_parameters: crop plant compatibility, 20 g/ha, effect vs untreated controls
measurement_kind: Post-emergence action against ORYSA in % (%)

O=C(O)COc1nn(-c2ccccn2)c(-c2ccc(F)nc2)c1C(F)(F)F [Example I-99] | 0
O=C(O)COc1nn(-c2ncccc2F)c(-c2ccnc(F)c2)c1Br [Example I-139] | 0
O=C(COc1nn(-c2ncccc2F)c(-c2ccc(F)nc2)c1C1CC1)OCC1CCCO1 (stereo not drawn) [Example I-274] | 0
Cc1ncccc1-n1nc(OCC(=O)OCC2CCCO2)c(Br)c1-c1cncc(F)c1 (stereo not drawn) [II-43] | 0
CCOC(=O)C(C)Oc1nn(-c2ccccn2)c(-c2ccc(F)nc2)c1I (stereo not drawn) [Example I-101] | 0
O=C(COc1nn(-c2ncccc2F)c(-c2ccc(F)nc2)c1C1CC1)OCC(F)(F)F [Example I-326] | 0

A. COC(=O)CNC(=O)COc1nn(-c2ccccn2)c(-c2ccc(F)nc2)c1C1CC1 [Example I-70]
B. COC(=O)C(C)NC(=O)C(C)Oc1nn(-c2ccccn2)c(-c2ccc(F)nc2)c1Br (stereo not drawn) [Example I-286]
Inquiry: From the recorded data, which exceeds the other in Post-emergence action against ORYSA in %: A or B ? Lab note: record the label of whichever item you select.
Reply text: B

a. O=C(O)COc1nn(-c2ncccc2F)c(-c2cncc(F)c2)c1Cl [Example I-169]
b. COC(=O)C(C)COC(=O)C(C)Oc1nn(-c2ccccn2)c(-c2ccc(F)nc2)c1Br (stereo not drawn) [Example I-285]
Inquiry: Quick one: lower Post-emergence action against ORYSA in %, a or b ? # reply format: chosen label
Reply text: a

---

Entries and their Pre-emergence action against SETVI in % values follow.
Tested on: Setaria viridis (SETVI)
test_protocol: Pre-emergence herbicidal action against SETVI
Type: in vivo
run_parameters: dosage 320 g/ha
Give the quantity in %, number only.

Examples with answers:
CCOC(=O)COc1nn(-c2ncccc2C(F)(F)F)c(-c2cncc(F)c2)c1Br [Example I-202] | 90
CCOC(=O)COc1nn(-c2ncccc2Cl)c(-c2ccc(F)nc2)c1Br [Example I-23] | 100
O=C(O)COc1nn(-c2ccccn2)c(-c2ccc(F)nc2)c1C(F)(F)F [Example I-99] | 90
O=C(O)COc1nn(-c2ncccc2F)c(-c2ccc(F)nc2)c1C1CC1 [Example I-43] | 100

Let us examine a further case.
Pre-emergence action against SETVI in % in this record for C[C@@H](Oc1nn(-c2ccccn2)c(-c2cncnc2)c1Cl)C(=O)O [Example I-20] : 100

---

System: Verconica persica (VERPE)
test_protocol: Post-emergence herbicidal action against VERPE
Assay type: in vivo
run_parameters: 320 g/ha, VERPE
measurement_kind: Post-emergence action against VERPE in % (%)
Number in %, nothing else.

// known answers, use as guide
C[C@@H](Oc1nn(-c2ncccc2F)c(-c2ccc(F)nc2)c1Br)C(=O)O [Example I-10] | 80
COC(=O)[C@H](C)NC(=O)COc1nn(-c2ccccn2)c(-c2ccc(F)nc2)c1Cl [Example I-87] | 90
O=C(O)COc1nn(-c2ccccn2)c(-c2ccc(Cl)nc2)c1Br [Example I-235] | 80

--- query ---
// COC(=O)C(C)COC(=O)[C@@H](C)Oc1nn(-c2ccccn2)c(-c2cncc(F)c2)c1Cl (stereo partly shown) [Example I-198] : Post-emergence action against VERPE in % value = 80

---

Tested on: Glycine max (GLXMA)
Type: in vivo
run_parameters: pre-emergence, 320 g/ha, crop plant compatibility, in comparison to untreated controls
measurement_kind: Pre-emergence action against GLXMA in % (%)

CCOC(=O)COc1nn(-c2ncccc2F)c(-c2ccc(F)nc2)c1I | 0
COC(=O)C1CCN(C(=O)COc2nn(-c3ccccn3)c(-c3ccc(F)nc3)c2Br)C1 (stereo not drawn) | 20

A. COC(=O)COc1nn(-c2ncccc2OC)c(-c2ccc(F)nc2)c1Cl
B. COC(=O)CN(C)C(=O)COc1nn(-c2ccnc(Cl)c2)c(-c2ccc(F)nc2)c1Br
C. CCOC(=O)C(Oc1nn(-c2ccccn2)c(-c2ccc(F)nc2)c1Br)C(C)C (stereo not drawn)
Inquiry: List items by Pre-emergence action against GLXMA in % in falling order. Hello, could you send the labels back in the order asked? Thank you.
Reply text: A, C, B

---

Below, each entry is listed with its recorded Pre-emergence action against MATIN in %.
Tested on: Matricaria inodora (MATIN)
test_protocol: Pre-emergence herbicidal action against MATIN
Type: in vivo
run_parameters: dosage 80 g/ha
Please respond with the number in % and leave the unit unwritten.

O=C(COc1nn(-c2ncccc2F)c(-c2ccc(F)nc2)c1Br)OCc1ccccn1 | 90
COC(=O)[C@H](C)COC(=O)COc1nn(-c2ccccn2)c(-c2cncc(F)c2)c1Br | 90
C[C@@H](Oc1nn(-c2ccccn2)c(-c2cncc(F)c2)c1Cl)C(=O)O | 90
O=C(O)COc1nn(-c2ccccn2)c(-c2cncc(F)c2)c1Cl | 80
COC(=O)[C@@H](C)Oc1nn(-c2ncccc2F)c(-c2ccc(F)nc2)c1I | 90
C[C@@H](Oc1nn(-c2nc(F)ccc2F)c(-c2cncc(F)c2)c1Cl)C(=O)O | 90
CCOC(=O)[C@@H](C)Oc1nn(-c2nc(F)ccc2F)c(-c2ccc(F)nc2)c1Br | 80
C[C@@H](Oc1nn(-c2ncccc2F)c(-c2ccc(F)nc2)c1F)C(=O)O | 90
COC(=O)[C@@H](C)Oc1nn(-c2ccccn2)c(-c2cncc(F)c2)c1Cl | 90
COC(=O)COc1nn(-c2nc(F)ccc2F)c(-c2cncc(F)c2)c1Cl | 90

Then there is this compound:
The value of Pre-emergence action against MATIN in % measured for the compound COC(=O)COc1nn(-c2ncccc2F)c(-c2cncc(F)c2)c1C1CC1 turned out to be 90

---

Test system: Verconica persica (VERPE)
test_protocol: Post-emergence herbicidal action against VERPE
Type: in vivo
run_parameters: dosage 80 g/ha
Below, each entry is listed with its recorded Post-emergence action against VERPE in %.
The figure you give is taken to be in %; do not add the unit.

Worked cases, answers included:
CCOC(=O)[C@@H](C)Oc1nn(-c2ccccn2)c(-c2cncc(F)c2)c1Cl | 90
COCCOCCOC(=O)[C@@H](C)Oc1nn(-c2ncccc2F)c(-c2ccc(F)nc2)c1Br | 90
CCOC(=O)[C@@H](C)Oc1nn(-c2ncccc2F)c(-c2ccc(F)nc2)c1C(F)(F)F | 90
Cc1ncccc1-n1nc(OCC(=O)O)c(Cl)c1-c1cncc(F)c1 | 80
CS(=O)(=O)NC(=O)COc1nn(-c2ncccc2F)c(-c2ccc(F)nc2)c1Br | 80
CCOC(=O)COc1nn(-c2ncccc2F)c(-c2cncc(F)c2)c1C(F)(F)F | 90

Note to self: Post-emergence action against VERPE in % recorded for COC(=O)CCOC(=O)COc1nn(-c2ccccn2)c(-c2ccc(F)nc2)c1F was 80

For record COC(=O)CNC(=O)[C@@H](C)Oc1nn(-c2ccccn2)c(-c2cncc(F)c2)c1Cl the listed Post-emergence action against VERPE in % is 80

Kindly note the recorded Post-emergence action against VERPE in % for COCCOC(=O)COc1nn(-c2cccc(C)n2)c(-c2ccc(F)nc2)c1Cl , which is 80

The value of Post-emergence action against VERPE in % measured for the compound COC(=O)CNC(=O)[C@@H](C)Oc1nn(-c2ccccn2)c(-c2ccc(F)nc2)c1Cl turned out to be 80

Summary for this compound, COC(=O)[C@@H](C)Oc1nn(-c2ncccc2F)c(-c2cncc(F)c2)c1C1CC1 : Post-emergence action against VERPE in % is 90

Post-emergence action against VERPE in % measured on COC(=O)[C@@H](C)Oc1nn(-c2ncccc2F)c(-c2cncc(F)c2)c1Br = 80

Given item O=C(O)COc1nn(-c2ccccn2)c(-c2cncc(F)c2)c1Br , the value recorded as its Post-emergence action against VERPE in % is 80

// CCOC(=O)[C@@H](C)Oc1nn(-c2ncccc2F)c(-c2cncc(F)c2)c1C1CC1 : Post-emergence action against VERPE in % value = 80

Values compiled from patent US20240041042A1.
